# System: MS2 coat protein
# assay_summary: apparent KD of MS2 coat protein; designed switch direction (-1 OFF switch, 1 ON switch): 1; higher = weaker reporter binding
# run_conditions: Eterna round: R95; input ligand: none
Response key: 1.0 means apparent KD of MS2 coat protein >= 100 nM; 0.0 means apparent KD of MS2 coat protein < 100 nM.

Lookup: Does apparent KD of MS2 coat protein meet or surpass 100 nM for GUAGAUGUAGAGGAGGAUAUUCAAUGAGGAACAUGAGGAUCACCCAUGUAAGAGAGAGAUGAUGAGAAGAAGGCUUAGAGAGAUG [Altered State 2-2 - Jieux - Same State 2] (puzzle: Same State 2) ?
Found: 0.0

Lookup: Does apparent KD of MS2 coat protein meet or surpass 100 nM for AGUCCAGCCUAAGCUGGACAAAAGCAUGUACAUGAGGAUCACCCAUGUUCAUGUACAAGCUUUUUGCUCGUCAAAAG [Mat - hsa-mir-208a - Mod of JL - 68] (puzzle: Sensor for hsa-mir-208a) ?
Found: 1.0

Lookup: Does apparent KD of MS2 coat protein meet or surpass 100 nM for CGAUGAAACAAAGGAAGAAGAGUUGAAGUACAUGAGGAUCACCCAUGUCAGAGCUUUUUGCUCGUCAUGAACAGGAA [JR_SHM208a_Sub004] (puzzle: Sensor for hsa-mir-208a) ?
Found: 0.0

Lookup: Does apparent KD of MS2 coat protein meet or surpass 100 nM for AGUCCAGCCUGAGCUGGACAAAAGCAUGUACAUGAGGAUCACCCAUGUCAUGUACAAGCUUUUUGCUCGUCAUAAAA [Mat - hsa-mir-208a - Mod of JL - D8] (puzzle: Sensor for hsa-mir-208a) ?
Found: 1.0

Lookup: Does apparent KD of MS2 coat protein meet or surpass 100 nM for GCAGAACAUGAGGAUCACCCAUGUCUCAAAUAUUGAGGAUAUGGACACGGUAUAUCCGAACCAGAAGGCAAACUGC [SS1 Teenbexe 19] (puzzle: Same State 1) ?
Found: 0.0

Lookup: Does apparent KD of MS2 coat protein meet or surpass 100 nM for AUAAAACAUGAGGAUCACCCAUGUCAACUAAGUCGAGGAUAUGGGCAAAUAAAAUAAGAACCAGAAGGCGAAUAAU [salish99_ss1_r3_041] (puzzle: Same State 1) ?
Found: 1.0

Lookup: Does apparent KD of MS2 coat protein meet or surpass 100 nM for AAGAAGACGAACAAGGAUAUGUCAAAGGAAACAUGAGGAUCACCCAUGUAGAGAUUGGAAAAGAAACAGAAGGUGUACAGAGAGA [JR_SS2_Sub006] (puzzle: Same State 2) ?
Found: 0.0

Lookup: Does apparent KD of MS2 coat protein meet or surpass 100 nM for AGUCCAGCCUAAGCUGGACAAAAGCAUGUACAUGAGGAUCACCCAUGUUCAUGUACAAGCUUUUUGCAAGUCAAAAG [Mat - hsa-mir-208a - Mod of JL - 76] (puzzle: Sensor for hsa-mir-208a) ?
Found: 1.0

Lookup: Does apparent KD of MS2 coat protein meet or surpass 100 nM for CCGGUACAUGAGGAUCACCCAUGUUGCGGCAGGACAGGAUAUGGGCGAGAAUAUGUAGGCCCAGAAGGGUCAUCAC [Qure] (puzzle: Same State 1) ?
Found: 0.0

* * *

# System: MS2 coat protein
# assay_summary: apparent KD of MS2 coat protein; designed switch direction (-1 OFF switch, 1 ON switch): -1; higher = weaker reporter binding
# run_conditions: input ligand: none
Overview of reported apparent KD of MS2 coat protein across a group of sequences:
Entry rule: numbers only, all in nM.

{"columns": ["query_sequence", "apparent KD of MS2 coat protein [nM]"],
 "data": [
  ["GCCUUAUCUGUCAGGAUAUACAAUAAAAUAACUUUGUAGAAGGGACAUGAGGAUCACCCAUGUACAUUACAUUG [alecazam24b] (Eterna round: R97, puzzle: Brourd's mod of Exclusion 4)", 24.6],
  ["UGAACAUGAGGAUCACCCAUGUGGUUAGGUGAAAUCCUGCUGGAGGAUAUAAGUCCUGGUGCCGCUUAGAAGGCCAGCUGACAG [Eternabot solution 48] (Eterna round: R96, puzzle: Exclusion NG 3)", 82.5]
]}

Lookup: Checklist item: apparent KD of MS2 coat protein tested on MS2 coat protein, entry UAGUUAGCGUGUGGCACAUACAUGAGGAUCACCCAUGUUAGCUUAUAUAUUGCUCGUCUUAUAACAACACUUAACUU [Mod JX-Electric-eye6] (Eterna round: R97, puzzle: Sensor, turn-off variant 1) , value?
Found: 19

Lookup: Checklist item: apparent KD of MS2 coat protein tested on MS2 coat protein, entry UACAUGAGGAUCACCCAUGUUUUGUCGUGUAUGGUAUUUAUCUAGGAUAUCAAGUUAUUAAUUUAUGAGAAGGAGAAUAUUAAU [JMF's solution 32] (Eterna round: R96, puzzle: Exclusion NG 3) , value?
Found: 42.1
